# assay.target: Cbl-b (Homo sapiens, UniProt Q13191)
# Construct: Cbl-b-HiBit KI Jurkat Cells were purchased from Promega; host or cells: Cbl-b-HiBiT knock-in Jurkat cells
# Sequence (Q13191 whole entry): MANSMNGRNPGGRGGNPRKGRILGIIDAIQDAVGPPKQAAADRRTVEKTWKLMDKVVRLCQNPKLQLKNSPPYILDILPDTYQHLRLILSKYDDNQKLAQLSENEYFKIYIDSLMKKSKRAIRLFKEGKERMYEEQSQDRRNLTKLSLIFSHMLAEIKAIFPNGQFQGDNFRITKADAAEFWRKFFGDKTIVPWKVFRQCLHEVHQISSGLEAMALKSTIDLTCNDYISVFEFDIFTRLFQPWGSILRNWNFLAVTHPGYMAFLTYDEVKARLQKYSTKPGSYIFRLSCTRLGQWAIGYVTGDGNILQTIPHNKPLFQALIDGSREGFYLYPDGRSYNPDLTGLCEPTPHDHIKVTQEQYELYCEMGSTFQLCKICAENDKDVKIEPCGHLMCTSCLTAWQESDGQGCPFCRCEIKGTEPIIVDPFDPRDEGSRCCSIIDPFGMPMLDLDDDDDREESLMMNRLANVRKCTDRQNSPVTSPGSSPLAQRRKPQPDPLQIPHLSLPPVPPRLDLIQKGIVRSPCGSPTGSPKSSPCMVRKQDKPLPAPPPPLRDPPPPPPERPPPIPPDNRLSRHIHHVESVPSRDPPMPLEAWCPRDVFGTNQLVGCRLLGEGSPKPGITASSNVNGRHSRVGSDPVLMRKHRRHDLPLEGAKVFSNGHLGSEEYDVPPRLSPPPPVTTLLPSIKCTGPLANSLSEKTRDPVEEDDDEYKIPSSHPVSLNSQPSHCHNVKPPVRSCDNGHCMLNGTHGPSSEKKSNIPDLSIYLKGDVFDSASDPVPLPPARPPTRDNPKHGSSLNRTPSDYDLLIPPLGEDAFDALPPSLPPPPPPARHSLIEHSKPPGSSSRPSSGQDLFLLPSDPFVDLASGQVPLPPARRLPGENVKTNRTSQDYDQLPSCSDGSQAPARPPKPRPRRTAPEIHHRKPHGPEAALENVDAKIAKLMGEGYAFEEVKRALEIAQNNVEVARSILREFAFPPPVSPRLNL
# method.description: Cbl-b Degradation Method B (Nano-Glo HiBiT lytic detection)
# Format: cell-based
# study.conditions: Cbl-b-HiBit KI Jurkat Cells, incubated at least 6-24 hours; half maximal degradation; read-out: Cbl-b Degredation Method B IC50
endpoint.name: DC50

{"compound": "COc1cc(N2CCN(CC3CCN(Cc4cc5c(c(C(F)(F)F)c4)CN(c4cccc(C6(Cc7nncn7C)COC6)c4)C5=O)CC3)CC2)cc2c1C(=O)N(C1CCC(=O)NC1=O)C2=O (stereo not drawn) [Example 51]", "DC50": "> 500 nM"}
{"compound": "CC1c2nc(N3CCC(OC4CCC(CN5CC6CCC(C5)N6c5cc6c(c(C(F)(F)F)c5)CN(c5cccc(C7(Cc8nncn8C)CC(C#N)C7)c5)C6=O)CC4)CC3)ccc2C(=O)N1C1CCC(=O)NC1=O (stereo not drawn) [Example 183]", "DC50": "5 to 50 nM"}

Let us examine a further case.
Problem: Please give the measured DC50 for this compound: Cn1cnnc1CC1(c2cccc(N3Cc4c(cc(CN5CCC[C@H](CN6CCN(C[C@H]7CC[C@@H](OC8CCN(c9ccc%10c(c9F)CN(C9CCC(=O)NC9=O)C%10=O)CC8)CC7)CC6)C5)cc4C(F)(F)F)C3=O)c2)CC1 (stereo partly drawn) [Example 162]
Result: < 5 nM

###

# assay.target: Cbl-b (Homo sapiens, UniProt Q13191)
# Construct: Cbl-b-HiBit KI Jurkat Cells were purchased from Promega; host or cells: Cbl-b-HiBiT knock-in Jurkat cells
# method.description: Cbl-b Degradation Method A (FACS, anti-Cbl-b antibody staining)
# Assay type: cell-based
# study.conditions: Cbl-b-HiBit KI Jurkat Cells, incubated at least 20 hours; half maximal degradation; read-out: Cbl-b Degredation Method A IC50
endpoint.name: DC50

{"compound": "Cn1cnnc1CC1(c2cccc(N3Cc4c(cc(CN5CCC[C@H](CN6CCC(CN7CC8(C7)CN(c7ccc9c(c7)C(=O)N(C7CCC(=O)NC7=O)C9=O)C8)CC6)C5)cc4C(F)(F)F)C3=O)c2)COC1 (stereo partly drawn)", "experimental.value": "5 to 50 nM"}
{"compound": "C[C@@H]1c2nc(N3CCC(O[C@H]4CC[C@H](CN5CCN(Cc6cc7c(c(C(F)(F)F)c6)CN(c6cccc(C8(Cc9nncn9C)CC(C#N)C8)c6)C7=O)C(C)(C)C5)CC4)CC3)ccc2C(=O)N1C1CCC(=O)NC1=O (single isomer, unassigned) [Example 306]", "experimental.value": "50 to 500 nM"}
{"compound": "CC1CN(C[C@H]2CC[C@H](OC3CCN(c4ccc5c(n4)C(C)N(C4CCC(=O)NC4=O)C5=O)CC3)CC2)CCN1Cc1cc2c(c(C(F)(F)F)c1)CN(c1cccc(C3(Cc4nncn4C)CC3)c1)C2=O (stereo partly drawn)", "experimental.value": "5 to 50 nM"}

Problem: Please give the measured DC50 for this compound: CC1c2nc(N3CCC(CN4CCN(CC5CCN(Cc6cc7c(c(C(F)(F)F)c6)CN(c6cccc([C@]8(Cc9nncn9C)C[C@@H](C#N)C8)c6)C7=O)C6(CC6)C5)CC4)CC3)ccc2C(=O)N1C1CCC(=O)NC1=O (stereo partly drawn)
Result: 5 to 50 nM

Problem: Please give the measured DC50 for this compound: Cn1cnnc1CC1(c2cccc(N3Cc4c(cc(CN5CCC(CC6CN(c7cccc8c7C(=O)N(C7CCC(=O)NC7=O)C8=O)C6)CC5)cc4C(F)(F)F)C3=O)c2)COC1 (stereo not drawn)
Result: > 500 nM

Problem: Please give the measured DC50 for this compound: Cn1cnnc1CC1(c2cccc(N3Cc4c(cc(N5CCC(C6CN(c7ccc8c(c7)C(=O)N(C7CCC(=O)NC7=O)C8=O)C6)CC5)cc4C(F)(F)F)C3=O)c2)COC1 (stereo not drawn)
Result: > 500 nM

Problem: Please give the measured DC50 for this compound: Cn1cnnc1CC1(c2cccc(NC(=O)c3cc(CN4CCC[C@H](CN5CCC(CN6CCN(c7ccc8c(c7)C(=O)N(C7CCC(=O)NC7=O)C8=O)CC6)CC5)C4)nc(C4CC4)n3)c2)COC1 (stereo partly drawn)
Result: 50 to 500 nM

Problem: Please give the measured DC50 for this compound: Cc1cc(N2CCC(O[C@H]3CC[C@H](CN4CCN(Cc5cc6c(c(C(F)(F)F)c5)CN(c5cccc([C@]7(Cc8nncn8C)C[C@H](C#N)C7)c5)C6=O)[C@@H](C)C4)CC3)CC2)c(F)c2c1C(=O)N(C1CCC(=O)NC1=O)C2 (stereo partly drawn)
Result: 5 to 50 nM

Problem: Please give the measured DC50 for this compound: C[C@@H]1c2nc(N3CCC(O[C@H]4CC[C@H](CN5CCN(Cc6cc7c(c(C(F)(F)F)c6)CN(c6cccc(C8(Cc9nncn9C)CC(C#N)C8)c6)C7=O)C6(CC6)C5)CC4)CC3)ccc2C(=O)N1C1CCC(=O)NC1=O (single isomer, unassigned)
Result: 50 to 500 nM

Problem: Please give the measured DC50 for this compound: CC(C)n1c(=O)n(C2CCC(=O)NC2=O)c2cccc(N3CCC(O[C@H]4CC[C@H](CN5CCCN(Cc6cc7c(c(C(F)(F)F)c6)CN(c6cccc([C@]8(Cc9nncn9C)C[C@@H](C#N)C8)c6)C7=O)CC5)CC4)CC3)c21 (stereo partly drawn)
Result: 5 to 50 nM

Problem: Please give the measured DC50 for this compound: CC1CC(CN2CC3(CCN(c4ccc5c(c4)C(=O)N(C4CCC(=O)NC4=O)C5=O)CC3)C2)CN(Cc2cc3c(c(C(F)(F)F)c2)CN(c2cccc(C4(Cc5nncn5C)COC4)c2)C3=O)C1 (stereo not drawn)
Result: > 500 nM

Problem: Please give the measured DC50 for this compound: CC1CN(C[C@H]2CC[C@H](OC3CCN(c4ccc5c(c4F)CN(C4CCC(=O)NC4=O)C5=O)CC3)CC2)CCN1Cc1cc2c(c(C(F)(F)F)c1)CN(c1cccc([C@]3(Cc4nncn4C)C[C@@H](C#N)C3)c1)C2=O (stereo partly drawn)
Result: < 5 nM

###

# assay.target: Cbl-b (Homo sapiens)
# Construct: Cbl-b-HiBit KI Jurkat Cells were purchased from Promega; host or cells: Cbl-b-HiBiT knock-in Jurkat cells
# method.description: Cbl-b Degradation Method B (Nano-Glo HiBiT lytic detection)
# Assay type: cell-based
# study.conditions: Cbl-b-HiBit KI Jurkat Cells, incubated at least 6-24 hours; half maximal degradation; read-out: Cbl-b Degredation Method B IC50
endpoint.name: DC50

{"molecule": "Cn1cnnc1CC1(c2cccc(N3Cc4c(cc(CN5CCC[C@@H](CN6CCN(C[C@H]7CC[C@H](OC8CCN(c9ccc%10c(c9F)CN(C9CCC(=O)NC9=O)C%10=O)CC8)CC7)CC6(C)C)C5)cc4C(F)(F)F)C3=O)c2)COC1 (stereo partly drawn) [Example 286]", "DC50": "< 5 nM"}
{"molecule": "Cn1cnnc1CC1(c2cccc(N3Cc4c(cc(CN5CCC(CN6CCC7(CC6)CN(c6cccc8c6CN(C6CCC(=O)NC6=O)C8=O)C7)CC5)cc4C(F)(F)F)C3=O)c2)COC1 (stereo not drawn) [Example 65]", "DC50": "> 500 nM"}

Problem: Please give the measured DC50 for this molecule: Cn1cnnc1C[C@]1(c2cccc(N3Cc4c(cc(CN5CCN(C[C@H]6CC[C@H](OC7CCN(c8ccc9c(c8)CC(=O)N9C8CCC(=O)NC8=O)CC7)CC6)CC5)cc4C(F)(F)F)C3=O)c2)C[C@H](C#N)C1 (stereo partly drawn) [Example 219]
Result: < 5 nM

###

# assay.target: Cbl-b (Homo sapiens)
# Construct: Cbl-b-HiBit KI Jurkat Cells were purchased from Promega; host or cells: Cbl-b-HiBiT knock-in Jurkat cells
# method.description: Cbl-b Degradation Method B (Nano-Glo HiBiT lytic detection)
# Format: cell-based
# study.conditions: Cbl-b-HiBit KI Jurkat Cells, incubated at least 6-24 hours; half maximal degradation; read-out: Cbl-b Degredation Method B IC50
endpoint.name: DC50

Solved cases below.
{"molecule": "C[C@H]1C[C@@H](CN2CCC(CC3CCN(c4ccc5c(c4)C(=O)N(C4CCC(=O)NC4=O)C5=O)CC3)CC2)CN(Cc2cc3c(c(C(F)(F)F)c2)CN(c2cccc(C4(Cc5nncn5C)COC4)c2)C3=O)C1 (stereo partly drawn)", "endpoint.name": "DC50", "experimental.value": "< 5 nM"}
{"molecule": "Cn1cnnc1C[C@]1(c2cccc(N3Cc4c(cc(CN5CCN(C[C@H]6CC[C@H](OC7CCN(c8ccnc(C(=O)NC9CCC(=O)NC9=O)c8)CC7)CC6)CC5)cc4C(F)(F)F)C3=O)c2)C[C@H](C#N)C1 (stereo partly drawn)", "endpoint.name": "DC50", "experimental.value": "> 500 nM"}

Problem: Please give the measured DC50 for this molecule: Cn1cnnc1CC1(c2cccc(N3Cc4c(cc(N5CC6(CCN(CC7CCN(c8ccc9c(c8)C(=O)N(C8CCC(=O)NC8=O)C9=O)CC7)CC6)C5)cc4C(F)(F)F)C3=O)c2)COC1 (stereo not drawn)
Result: 5 to 50 nM

Reference source: patent US20260184710A1
